- System Tested: PD1-PDL1 interaction (Homo sapiens, UniProt Q9NZQ7)
- Construct: endogenous in cells; host or cells: MDA-MB-231 tumor cells (PD-L1); primary splenocytes of C57BL/6 mice (PD-1)
- Sequence (Q9NZQ7 19-290): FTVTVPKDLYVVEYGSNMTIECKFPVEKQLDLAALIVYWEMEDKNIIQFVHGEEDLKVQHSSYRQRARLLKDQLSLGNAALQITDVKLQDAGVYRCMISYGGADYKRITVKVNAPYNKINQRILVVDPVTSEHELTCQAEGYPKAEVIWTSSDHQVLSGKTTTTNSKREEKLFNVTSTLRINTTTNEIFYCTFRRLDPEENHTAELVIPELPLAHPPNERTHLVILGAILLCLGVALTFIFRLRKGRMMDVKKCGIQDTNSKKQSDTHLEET
- Measurement Protocol: CFSE mouse splenocyte proliferation assay (FACS), co-culture with MDA-MB-231 tumor cells expressing PD-L1
- Type: cell-based
- Measurement Context: % splenocyte proliferation/% background proliferation; MDAMB231 over expressing PDL1; background 1.0, stimulated splenocytes 5.5
Where a SMILES comes first, the peptide text is derived from it. Bridges are numbered along the chain shown (N, C = ends). [ ]: non-standard residue; d: D form. ξ: configuration not given here. ξE = NC(CCC(=O)O)C(=O)O; ξQ = NC(=O)CCC(N)C(=O)O; ξK = NCCCCC(N)C(=O)O; Ahx = NCCCCCC(=O)O; ξS = NC(CO)C(=O)O
Kindly supply the reported Fold induction values for the records listed here.
One number for each entry.

C[C@@H](O)[C@@H]1NC(=O)[C@@H](NC(=O)[C@@H](N)CO)CCC(=O)NCCCC[C@@H](C(=O)N[C@@H](CO)C(=O)N[C@@H](Cc2ccccc2)C(N)=O)NC(=O)[C@H](CO)NC1=O [Compound 2] (H-SETSKSF-NH2; lactam 2-5) :: 4.3
CC[C@H](C)[C@H](N)C(=O)NC1CCC(=O)NCCCCC(C(=O)N[C@@H](CO)C(=O)NC(CCC(N)=O)C(=O)O)NC(=O)[C@H](CO)NC(=O)[C@H](CCSC)NC1=O (stereo partly drawn) [Compound 11] (H-I[ξE]MS[ξK]S[ξQ]-OH; lactam 2-5; N-terminus assumed) :: 4.2

API: the following record is the query input.
Query string: Lookup: Fold induction / PD1-PDL1 interaction (Homo sapiens, UniProt Q9NZQ7) / C[C@@H](O)[C@@H]1NC(=O)[C@H](CCC(=O)O)NC(=O)C(CO)NC(=O)CCCCCNC(=O)C(CCC(N)=O)NC(=O)[C@H](Cc2ccccc2)NC(=O)[C@H](CO)NC(=O)[C@H](CCCCN)NC(=O)[C@H](CO)NC1=O (stereo partly drawn) [Compound 17] (cyclo([Ahx][ξS]ETSKSF[ξQ]))
Result string: 3.2

* * *

Task for the reader: assign each of the following compounds its reported Fold induction.
- System Tested: PD1-PDL1 interaction (Homo sapiens, UniProt Q9NZQ7)
- Construct: endogenous in cells; host or cells: MDA-MB-231 tumor cells (PD-L1); primary splenocytes of C57BL/6 mice (PD-1)
- Measurement Protocol: CFSE mouse splenocyte proliferation assay (FACS), co-culture with MDA-MB-231 tumor cells expressing PD-L1
- Format: cell-based
- Measurement Context: % splenocyte proliferation/% background proliferation; MDAMB231 over expressing PDL1; background 1.0, stimulated splenocytes 5.5
Where a SMILES comes first, the peptide text is derived from it. Bridges are numbered along the chain shown (N, C = ends). [ ]: non-standard residue; d: D form. ξ: configuration not given here. ξE = NC(CCC(=O)O)C(=O)O; ξQ = NC(=O)CCC(N)C(=O)O; ξK = NCCCCC(N)C(=O)O; ξS = NC(CO)C(=O)O

CC(C)[C@H](NC(=O)C1CCCCNC(=O)CCC(NC(=O)[C@@H](N)CO)C(=O)N[C@@H]([C@@H](C)O)C(=O)N[C@@H](CO)C(=O)N1)C(=O)N[C@@H](Cc1ccccc1)C(N)=O (stereo partly shown) [Compound 7] (H-S[ξE]TS[ξK]VF-NH2; lactam 2-5; N-terminus assumed) :: 4.0
C[C@@H](O)[C@@H]1NC(=O)[C@H](CC(N)=O)NC(=O)C(CO)NC(=O)C(CCC(N)=O)NC(=O)[C@H](Cc2ccccc2)NC(=O)[C@H](CO)NC(=O)[C@H](CCC(=O)O)NC(=O)[C@H](CO)NC1=O (stereo partly shown) [Compound 14] (cyclo(ESF[ξQ][ξS]NTS)) :: 4.2
CC[C@H](C)[C@H](N)C(=O)NC1CCC(=O)NCCCCC(C(=O)N[C@H](C(=O)NC(CCC(N)=O)C(=O)O)C(C)C)NC(=O)[C@H](CO)NC(=O)[C@H](CCSC)NC1=O (stereo partly shown) [Compound 12] (H-I[ξE]MS[ξK]V[ξQ]-OH; lactam 2-5) :: 3.0

Consider now this further compound.
Query string: What does the data say about its Fold induction? Entry: C[C@@H](O)[C@@H]1NC(=O)[C@H](CCC(=O)O)NC(=O)C(CO)NC(=O)C(CCC(N)=O)NC(=O)[C@H](Cc2ccccc2)NC(=O)[C@H](CO)NC(=O)[C@H](CCCCN)NC(=O)[C@H](CO)NC1=O (stereo partly shown) [Compound 16] (cyclo(ETSKSF[ξQ][ξS]))
Result string: 2.8

Numbers sourced from patent US9422339B2.
